Reference source for all entries: PubChem BioAssay

molecules and their reported z-score
procedure.text: compound effects on differentiated 3T3-L1 adipocyte viability – cell-based, 3T3-L1 adipocytes, calcein-AM fluorescence, 48 h, basal, profiling panel (AID 1163); further: test concentration not given here
condition: 3T3-L1 adipocytes viability, higher = more signal
I'd appreciate a reply containing only the number, no unit.

Known results for molecules:
C#CCN(Cc1ccccc1Br)[C@H](/C=C/c1ccccc1)[C@@H](O)Cc1ccccc1: -0.566
COc1ccc([Si](C)(C)[C@@H]2[C@@H](CC(=O)N3Cc4ccccc4C[C@H]3CO)O[C@]3(C(=O)N(Cc4ccc(N5C(=O)c6cccc7cccc5c67)cc4)c4ccccc43)[C@H]2C)cc1: 0.885
CCCN1C(=O)[C@]2(Cc3ccccc31)N=C(c1ccc(OCCCO)cc1)O[C@@H]2c1ccccc1: 1.07
COc1ccc([Si](C)(C)[C@H]2[C@H](CC(=O)N(CCO)Cc3ccccc3)O[C@@]3(C(=O)N(C)c4c(Br)cc(C)cc43)[C@@H]2C)cc1: -0.346
CCC1=C2CN(Cc3ccccc3)[C@@H](C(=O)Cc3ccccc3)C2C=CCC1 (stereo partly drawn): 1.47

Need z-score, item "[N-]=[N+]=Nc1ccccc1C[C@@]1(C(=O)NCCN2CCOCC2)N=C(c2ccc(OCCCO)cc2)O[C@@H]1c1ccccc1N=[N+]=[N-]" 0.205

Do the same for "COC(=O)[C@@H]1N=C(c2ccc(OCCCO)cc2)O[C@@H]1c1ccccc1" please 0.469

Do the same for CC(c1ccccc1)C(O)C1C=CC2C(=O)N(C)C(=O)C2N1Nc1ccccc1 (stereo not drawn) please -0.856

Do the same for "[N-]=[N+]=Nc1ccccc1C[C@]1(C(=O)O)COC(c2ccc(OCCCO)cc2)=N1" please 0.909

Do the same for "COC(=O)C/C=C/C[C@]1(O)C(=O)N(C)c2ccccc21" please 0.349

Do the same for "NCCCCCNC(=O)[C@@H]1C[C@@H]2C(=O)N[C@@H](CCCCN)C(=O)N2[C@@H]1c1ccc(O)cc1" please -0.426

Do the same for "COc1ccc([C@H]2OC[C@@H]3C[C@H](Cc4ccccc4)C(=O)N32)cc1" please -0.835

Do the same for "C=C[C@H](C)[C@H](OC(=O)Nc1ccc(SC)cc1)c1ccc(OCCO)cc1" please 0.954

Do the same for COC(=O)C1=CC(CCCO)=CC(c2cccs2)N(C)C=C1C(=O)OC (stereo not drawn) please 0.483

Do the same for "CC(C)N1C(=O)C[C@@](C(=O)NC2CC2)(c2ccc([N+](=O)[O-])cc2)[C@H]1c1ccc(CO)cc1" please 1.98

Do the same for CCCCN1CC=CC23O[C@@H]4/C=C\CCCOC(=O)C4[C@H]2C(=O)N(CCO)[C@@H]3C1=O (stereo partly drawn) please 1.63

* * *

procedure.text: compound effects on differentiated 3T3-L1 adipocyte viability – cell-based, 3T3-L1 adipocytes, calcein-AM fluorescence, 48 h, basal, profiling panel (AID 1163); further: test concentration not given here
condition: 3T3-L1 adipocytes viability, higher = more signal
Checkbox rule: z-score lower than 0.5 = true (1); z-score not lower than 0.5 = false (0).

OCCCC1=CC(c2ccc(CN3CCCC3)cc2)N(Cc2cc3c(cc2Br)OCO3)CC1 (stereo not given): false (0)
O=C1[C@H]2C=C(I)[C@H](C[C@@H]2OCCOCCO)[C@@]12CO2: true (1)
CO[C@H]1O[C@H](CO)[C@@H](OC(=O)Nc2ccccc2)[C@H](OC(=O)c2cc3ccccc3[nH]2)[C@H]1OC(=O)c1cc2ccccc2[nH]1: false (0)
CCCNC(=O)[C@@]1(C)c2ccccc2C(=O)N(c2ccc(C)cn2)[C@H]1c1ccc(CO)cc1: true (1)

Turning now to a further record.
Please let me know if "CC(C)C[C@@H]1NC(=O)[C@@H]2C[C@H](C(=O)NCCCCCCN)[C@H](c3cccc(OCCO)c3)N2C1=O" shows z-score below 0.5. false (0)
